This collection of values is drawn from paper PMC7555119.

Recorded Aqueous Stability (%) for the following molecules
experiment: Stability in aqueous media (H2O/acetonitrile 80:20, HPLC-MS); type: physicochemical; conditions: remaining pure compound (HPLC) after two months at room temperature in aqueous solution (+20% acetonitrile)

Reference set (6 entries):
molecule	measured-value
O=C(Cc1cc(O)ccc1O)N(Cc1cc(O)ccc1O)c1ccc(O)cc1	0%
O=C(Cc1cc(O)ccc1O)Nc1cc(O)ccc1O	0%
O=C(Cc1cc(O)ccc1O)Nc1ccc(O)c(O)c1	0%
O=C(Cc1cc(O)ccc1O)Nc1ccc(O)cc1	77%
O=C(Nc1cc(O)ccc1O)N(Cc1cc(O)ccc1O)c1ccc(O)cc1	0%
O=C(Nc1ccc(O)cc1)Nc1ccc(O)cc1 [Compound 15, N,N′-bis(4-Hydroxyphenyl)urea]	90%

Quick one: Aqueous Stability (%) of `O=C(Nc1ccc(O)cc1)N(c1ccc(O)cc1)c1ccc(O)cc1` ? 93%

Quick one: Aqueous Stability (%) of `O=C(Nc1ccc(O)cc1)Nc1ccc(O)c(O)c1` ? 0%

Quick one: Aqueous Stability (%) of `O=C(Nc1ccc(O)cc1)Nc1cc(O)ccc1O` ? 0%

###

assay: DPPH free radical scavenging assay (RSA); conditions: highest concentration 2 mM, 10 min
property-measured: RSA percentage (%)
Report the figure in % without appending any unit label.

entry-smiles	RSA percentage / %
O=C(Cc1ccc(O)cc1O)Nc1ccc(O)cc1	67

// moving on: another record for RSA percentage
Quick one: RSA percentage of `O=C(Cc1ccc(O)c(O)c1)Nc1ccc(O)cc1` ? 82
